Molecular target: human CD33 A183S (human, UniProt P20138 18-364)
Sequence (P20138 18-364 A183S limits assumed): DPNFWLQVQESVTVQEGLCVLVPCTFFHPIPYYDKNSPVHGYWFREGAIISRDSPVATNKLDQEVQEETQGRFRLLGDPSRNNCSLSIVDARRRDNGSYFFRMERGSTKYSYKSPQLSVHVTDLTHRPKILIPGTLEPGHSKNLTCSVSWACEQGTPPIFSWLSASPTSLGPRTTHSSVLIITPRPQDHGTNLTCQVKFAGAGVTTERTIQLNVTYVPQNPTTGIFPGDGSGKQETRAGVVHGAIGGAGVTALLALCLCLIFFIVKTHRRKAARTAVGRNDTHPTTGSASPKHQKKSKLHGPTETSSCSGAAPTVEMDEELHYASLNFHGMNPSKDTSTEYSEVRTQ
Test: alanine scan, flow cytometry, HEK293-T;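 also: antibody binding to each alanine-substituted CD33 mutant expressed transiently in HEK293-T, read as fluorescence minus background, mean of duplicates, relative to wild-type CD33 set as 100%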
measurementName: Mean % WT Binding (%)
One number for each entry, in %.

binder="Refmab #3 (antibody, V domains shown, In the alanine scan antibodies were used as IgG or Fab) VH: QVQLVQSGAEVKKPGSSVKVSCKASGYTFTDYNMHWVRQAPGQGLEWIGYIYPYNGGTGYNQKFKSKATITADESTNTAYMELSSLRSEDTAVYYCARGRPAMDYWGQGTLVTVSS VL: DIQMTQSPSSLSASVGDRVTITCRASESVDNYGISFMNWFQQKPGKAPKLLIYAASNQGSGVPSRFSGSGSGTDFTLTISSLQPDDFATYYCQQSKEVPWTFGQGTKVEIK" measurednumber=117
binder="Refmab #2 (antibody, V domains shown, In the alanine scan antibodies were used as IgG or Fab) VH: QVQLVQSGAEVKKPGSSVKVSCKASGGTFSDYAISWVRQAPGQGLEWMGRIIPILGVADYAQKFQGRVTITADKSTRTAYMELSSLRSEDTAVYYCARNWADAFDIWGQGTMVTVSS VL: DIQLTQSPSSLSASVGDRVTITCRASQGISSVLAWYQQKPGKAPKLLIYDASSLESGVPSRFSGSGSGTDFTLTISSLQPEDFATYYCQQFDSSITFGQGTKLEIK" measurednumber=119
binder="Refmab #1 (antibody, V domains shown, In the alanine scan antibodies were used as IgG or Fab; also called hP67.6) VH: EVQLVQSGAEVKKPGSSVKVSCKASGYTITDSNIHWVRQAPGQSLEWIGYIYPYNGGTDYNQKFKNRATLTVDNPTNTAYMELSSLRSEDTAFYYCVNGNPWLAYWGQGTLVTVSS VL: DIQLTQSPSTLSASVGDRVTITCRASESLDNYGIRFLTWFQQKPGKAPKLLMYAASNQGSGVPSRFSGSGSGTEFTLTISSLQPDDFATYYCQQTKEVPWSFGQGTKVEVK" measurednumber=85.4

Okay, next one:
Notebook: Refmab #4 (antibody, V domains shown, In the alanine scan antibodies were used as IgG or Fab) VH: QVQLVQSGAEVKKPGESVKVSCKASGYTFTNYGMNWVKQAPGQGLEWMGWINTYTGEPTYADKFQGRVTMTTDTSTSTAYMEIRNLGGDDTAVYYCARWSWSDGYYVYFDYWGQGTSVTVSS VL: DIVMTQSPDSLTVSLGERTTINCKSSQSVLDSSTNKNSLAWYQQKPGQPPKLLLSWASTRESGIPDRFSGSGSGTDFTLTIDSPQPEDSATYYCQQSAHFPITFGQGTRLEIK , Mean % WT Binding read as 103
